System: COLO320DM cells
PROTOCOL: COLO320DM proliferation assay
Assay type: cell-based, human
SETTINGS: read-out: COLO320DM Proliferation Abs IC50
Protocol: Various technologies can be utilized to assess technologies of the present disclosure. For example, in some embodiments, solubility, LogD, interactions with targets, etc. of various agents such as stapled peptides were assessed using technologies described in WO 2022/261257 (e.g., those in its Examples). In some embodiments, solubility, shake flask LogD, and binding to beta-catenin were assessed. […]
MEASUREMENT_NAME: IC50

Fill in reported IC50 for this entry: CC(=O)N1CCC[C@]12CC=CCCCC1(CCCC=CCCCOC(=O)N3CC[C@@]4(C3)NC(=O)[C@H](CCCCNC(=O)CC[C@@H](C(=O)N[C@@H](C)C(N)=O)NC(=O)[C@H](Cc3csc5ccccc35)NC(=O)[C@H](Cc3ccsc3)NC4=O)NC(=O)[C@H](Cc3ccccc3)NC(=O)[C@H](C)NC(=O)C(C)(C)NC(=O)[C@H](Cc3cccc(C(=O)O)c3)NC(=O)[C@H](CC(=O)O)NC1=O)NC(=O)[C@H](C1CCCCC1)NC(=O)[C@H](CC(=O)O)NC2=O (single isomer, unassigned)
≤ 10 µM
